- Test system: Rats (female Lewis)
- method description: i.v. LD50 in rats (systemic toxicity)
- Format: in vivo
- condition: 300 mg I/ml, 37° C., injection rate 5 ml/min
Quick list: i.v. LD50 per entry.

Here is how some molecules turned out for i.v. LD50.
molecule: CNC(=O)c1c(I)c(C(=O)N[C@H](CO)[C@@H](O)CO)c(I)c(N(CC(O)CO)C(C)=O)c1I (relative stereo)
i.v. LD50: 13.5-14 gI/kg

molecule: CC(=O)N(CC(O)CO)c1c(I)c(C(=O)NCC(O)CO)c(I)c(C(=O)NCC(O)CO)c1I (centres unmarked) [Iohexol]
i.v. LD50: 13.5-15 gI/kg

molecule: C[C@H](O)C(=O)Nc1c(I)c(C(=O)NC(CO)CO)c(I)c(C(=O)NC(CO)CO)c1I
i.v. LD50: 12.2-13 gI/kg

molecule: COCC(=O)Nc1c(I)c(C(=O)NCC(O)CO)c(I)c(C(=O)N(C)CC(O)CO)c1I (centres unmarked) [Iopromide]
i.v. LD50: 10-11.5 gI/kg

Would you kindly look at the next entry?
Any idea what i.v. LD50 was measured for CC(=O)N(CC(O)CO)c1c(I)c(C(=O)NCCO)c(I)c(C(=O)NCC(O)CO)c1I (centres unmarked) ?
14-16.5 gI/kg

###

Quick list: i.v. LD50 per entry.
- System: Mice (female CD-1)
- method description: i.v. LD50 in mice (systemic toxicity)
- Assay type: in vivo
- condition: 300 mg I/ml, 37° C., injection rate 1 ml/min

Here is how some compounds turned out for i.v. LD50.
compound: CNC(=O)c1c(I)c(C(=O)N[C@H](CO)[C@@H](O)CO)c(I)c(N(CC(O)CO)C(C)=O)c1I (relative stereo)
tested target: Mice (female CD-1)
reading: 12-13 gI/kg
//
compound: C[C@H](O)C(=O)Nc1c(I)c(C(=O)NC(CO)CO)c(I)c(C(=O)NC(CO)CO)c1I
tested target: Mice (female CD-1)
reading: 17-18.5 gI/kg

Any idea what i.v. LD50 was measured for COCC(=O)Nc1c(I)c(C(=O)NCC(O)CO)c(I)c(C(=O)N(C)CC(O)CO)c1I (stereo not drawn) [Iopromide] ?
11.5-13.0 gI/kg
